experimental_target: PKCε (Homo sapiens)
Construct: purchased Eurofins Pharma Discovery Services (KinaseProfiler; Cerep BioPrint panel)
Sequence (Q02156 whole entry): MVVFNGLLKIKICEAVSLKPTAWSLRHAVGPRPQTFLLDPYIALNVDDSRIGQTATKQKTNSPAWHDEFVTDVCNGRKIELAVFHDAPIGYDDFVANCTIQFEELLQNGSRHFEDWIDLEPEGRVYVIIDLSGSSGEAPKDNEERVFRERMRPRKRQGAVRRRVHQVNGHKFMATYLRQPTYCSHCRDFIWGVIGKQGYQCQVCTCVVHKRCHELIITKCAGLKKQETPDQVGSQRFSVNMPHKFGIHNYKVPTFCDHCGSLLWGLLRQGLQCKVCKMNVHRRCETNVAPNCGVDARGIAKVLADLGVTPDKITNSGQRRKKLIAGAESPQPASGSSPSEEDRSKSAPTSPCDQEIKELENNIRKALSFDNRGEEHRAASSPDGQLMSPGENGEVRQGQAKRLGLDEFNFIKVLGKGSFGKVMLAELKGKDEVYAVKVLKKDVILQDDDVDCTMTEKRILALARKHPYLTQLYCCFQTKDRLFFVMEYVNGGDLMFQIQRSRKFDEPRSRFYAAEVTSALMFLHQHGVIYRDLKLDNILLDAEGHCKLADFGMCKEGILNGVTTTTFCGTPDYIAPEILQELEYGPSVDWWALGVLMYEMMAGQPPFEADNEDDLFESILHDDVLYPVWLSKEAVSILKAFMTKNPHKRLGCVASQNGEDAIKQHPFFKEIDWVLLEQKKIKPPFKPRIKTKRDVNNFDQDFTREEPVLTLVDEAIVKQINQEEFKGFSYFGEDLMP
experiment_description: kinase selectivity panel
Type: biochemical
study_conditions: read-out: percentage of control activity (POC), PKCε
As shown below, each of these molecules has a reported remaining activity at 10 µM value.
value_type: remaining activity at 10 µM (%)

molecule=Cc1ccc(C(=O)NCC2CC2)cc1-c1ccc2c(c1)NC(=O)C21CCCC1 value_type="remaining activity at 10 µM" measurement_unit=% val=102
molecule=CS(=O)(=O)N1CCN(c2ccc(Nc3ncc(C(N)=O)c(NC4CC4)n3)cc2)CC1 value_type="remaining activity at 10 µM" measurement_unit=% val=54
molecule="Cn1cc(-c2cccc(-c3nc(C(=O)NC4C5CC6CC4CC(O)(C6)C5)c(N)nc3N)c2)cn1 (centres unmarked)" value_type="remaining activity at 10 µM" measurement_unit=% val=87
molecule="COc1c(NC(=O)c2ccc(C)c(-c3nnc4c(NCC(C)(C)C)nccn34)c2)cc(C(C)(C)C)cc1NS(C)(=O)=O [compound 7, reference compound]" value_type="remaining activity at 10 µM" measurement_unit=% val=100
molecule=CC(C)(C)N1CCC(c2cc(-c3ccc(F)cc3Cl)c3cc[n+]([O-])c(-c4c(Cl)cccc4Cl)c3n2)CC1 value_type="remaining activity at 10 µM" measurement_unit=% val=94

* * *

Quick list: remaining activity at 10 µM per entry.
experimental_target: CHK1 (Homo sapiens)
Construct: purchased Eurofins Pharma Discovery Services (KinaseProfiler; Cerep BioPrint panel)
Sequence (O14757 whole entry): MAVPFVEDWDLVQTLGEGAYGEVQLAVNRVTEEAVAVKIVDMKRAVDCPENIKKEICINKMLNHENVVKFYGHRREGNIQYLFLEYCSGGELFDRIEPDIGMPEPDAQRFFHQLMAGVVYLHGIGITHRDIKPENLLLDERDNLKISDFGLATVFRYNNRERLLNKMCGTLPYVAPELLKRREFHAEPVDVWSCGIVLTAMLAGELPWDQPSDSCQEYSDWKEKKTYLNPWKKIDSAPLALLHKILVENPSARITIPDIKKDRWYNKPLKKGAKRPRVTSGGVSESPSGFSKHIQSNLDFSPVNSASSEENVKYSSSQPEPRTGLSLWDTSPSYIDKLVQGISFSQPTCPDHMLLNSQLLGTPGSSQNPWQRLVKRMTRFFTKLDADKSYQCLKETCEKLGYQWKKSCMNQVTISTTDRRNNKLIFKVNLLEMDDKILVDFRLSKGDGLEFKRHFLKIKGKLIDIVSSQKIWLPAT
experiment_description: kinase selectivity panel
Type: biochemical
study_conditions: read-out: percentage of control activity (POC), CHK1
value_type: remaining activity at 10 µM (%)

compound="Cn1cc(-c2cccc(-c3nc(C(=O)NC4C5CC6CC4CC(O)(C6)C5)c(N)nc3N)c2)cn1 (centres unmarked)" val=94
compound="COc1c(NC(=O)c2ccc(C)c(-c3nnc4c(NCC(C)(C)C)nccn34)c2)cc(C(C)(C)C)cc1NS(C)(=O)=O [compound 7, reference compound]" val=103
compound=CC(C)(C)N1CCC(c2cc(-c3ccc(F)cc3Cl)c3cc[n+]([O-])c(-c4c(Cl)cccc4Cl)c3n2)CC1 val=103
compound=CS(=O)(=O)N1CCN(c2ccc(Nc3ncc(C(N)=O)c(NC4CC4)n3)cc2)CC1 val=1
compound=Cc1ccc(C(=O)NCC2CC2)cc1-c1ccc2c(c1)NC(=O)C21CCCC1 val=100

* * *

experimental_target: ROCK-I (Homo sapiens, UniProt Q13464)
Construct: purchased Eurofins Pharma Discovery Services (KinaseProfiler; Cerep BioPrint panel)
Sequence (Q13464 whole entry): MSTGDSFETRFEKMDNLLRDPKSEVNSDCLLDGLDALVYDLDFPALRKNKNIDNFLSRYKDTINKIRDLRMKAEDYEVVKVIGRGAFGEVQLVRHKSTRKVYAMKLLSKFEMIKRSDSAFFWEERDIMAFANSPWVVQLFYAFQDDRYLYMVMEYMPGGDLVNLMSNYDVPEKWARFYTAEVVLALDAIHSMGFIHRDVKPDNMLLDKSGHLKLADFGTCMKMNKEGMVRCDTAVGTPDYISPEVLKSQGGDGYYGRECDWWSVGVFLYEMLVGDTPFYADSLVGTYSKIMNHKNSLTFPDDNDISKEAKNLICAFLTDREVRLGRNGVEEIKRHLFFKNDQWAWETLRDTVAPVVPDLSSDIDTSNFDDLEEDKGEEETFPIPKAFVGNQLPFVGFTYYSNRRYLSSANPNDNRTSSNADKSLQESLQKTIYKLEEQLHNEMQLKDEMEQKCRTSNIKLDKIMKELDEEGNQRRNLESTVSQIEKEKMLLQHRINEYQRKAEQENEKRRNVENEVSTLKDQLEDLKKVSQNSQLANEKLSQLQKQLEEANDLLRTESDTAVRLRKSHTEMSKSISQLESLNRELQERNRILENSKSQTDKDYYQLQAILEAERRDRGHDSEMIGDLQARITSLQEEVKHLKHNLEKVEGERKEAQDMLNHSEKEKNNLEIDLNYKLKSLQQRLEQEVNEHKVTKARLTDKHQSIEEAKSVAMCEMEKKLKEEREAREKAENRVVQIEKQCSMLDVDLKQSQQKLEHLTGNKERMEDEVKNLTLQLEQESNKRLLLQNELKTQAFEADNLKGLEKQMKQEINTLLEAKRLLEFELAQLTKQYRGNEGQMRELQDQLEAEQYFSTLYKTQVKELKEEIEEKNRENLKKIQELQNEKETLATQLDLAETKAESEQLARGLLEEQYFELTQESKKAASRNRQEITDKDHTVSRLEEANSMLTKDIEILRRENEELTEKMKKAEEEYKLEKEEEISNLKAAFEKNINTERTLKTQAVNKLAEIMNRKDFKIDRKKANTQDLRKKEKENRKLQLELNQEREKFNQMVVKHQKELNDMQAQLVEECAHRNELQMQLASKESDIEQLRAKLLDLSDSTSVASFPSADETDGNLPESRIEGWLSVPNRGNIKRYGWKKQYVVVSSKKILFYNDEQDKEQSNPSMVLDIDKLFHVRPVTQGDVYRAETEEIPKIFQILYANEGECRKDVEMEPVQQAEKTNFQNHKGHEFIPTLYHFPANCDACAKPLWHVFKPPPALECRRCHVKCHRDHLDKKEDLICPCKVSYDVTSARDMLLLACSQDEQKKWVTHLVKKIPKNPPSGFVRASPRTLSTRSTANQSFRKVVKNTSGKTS
experiment_description: kinase selectivity panel
Format: biochemical
study_conditions: read-out: percentage of control activity (POC), ROCK-I
value_type: remaining activity at 10 µM (%)

compound="CS(=O)(=O)N1CCN(c2ccc(Nc3ncc(C(N)=O)c(NC4CC4)n3)cc2)CC1 [compound 5]" val=43
compound="COc1c(NC(=O)c2ccc(C)c(-c3nnc4c(NCC(C)(C)C)nccn34)c2)cc(C(C)(C)C)cc1NS(C)(=O)=O [compound 7, reference compound]" val=108
compound="Cc1ccc(C(=O)NCC2CC2)cc1-c1ccc2c(c1)NC(=O)C21CCCC1 [compound 3]" val=98
compound="CC(C)(C)N1CCC(c2cc(-c3ccc(F)cc3Cl)c3cc[n+]([O-])c(-c4c(Cl)cccc4Cl)c3n2)CC1 [compound 2]" val=97
compound="Cn1cc(-c2cccc(-c3nc(C(=O)NC4C5CC6CC4CC(O)(C6)C5)c(N)nc3N)c2)cn1 (centres unmarked) [compound 4]" val=91
